- Measurement Target: Cathepsin C (Homo sapiens, UniProt P53634)
- Sequence (P53634 25-143): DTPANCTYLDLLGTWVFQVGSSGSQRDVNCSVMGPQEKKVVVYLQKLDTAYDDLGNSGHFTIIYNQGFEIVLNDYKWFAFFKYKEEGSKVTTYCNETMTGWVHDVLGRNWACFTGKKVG
- Sequence (P53634 231-394): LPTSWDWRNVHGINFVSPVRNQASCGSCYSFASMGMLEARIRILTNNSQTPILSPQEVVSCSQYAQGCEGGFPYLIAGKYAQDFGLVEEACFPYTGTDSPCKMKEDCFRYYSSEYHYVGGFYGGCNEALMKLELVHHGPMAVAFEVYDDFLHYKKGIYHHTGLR
- Sequence (P53634 395-463): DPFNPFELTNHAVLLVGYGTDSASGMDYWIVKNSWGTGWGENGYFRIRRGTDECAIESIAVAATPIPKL
- Experiment Summary: biochemical
- Experimental Context: read-out: Compound IC50
Measured Attribute: pIC50
pIC50 is defined as minus the log10 of a concentration measured in mol/L.

Q: Specify pIC50 for CC(C)C[C@H](NC(=O)[C@H]1O[C@@H]1C(=O)O)C(=O)NCCCCN=C(N)N and stop.
A: 6.23

----------
- Measurement Target: Cathepsin B (Homo sapiens)
Measured Attribute: pIC50
pIC50 is defined as minus the log10 of a concentration measured in mol/L.

Q: For Cathepsin B (Homo sapiens), give the measured pIC50 of the entry CC(C)C[C@H](NC(=O)[C@H]1O[C@@H]1C(=O)O)C(=O)NCCCCN=C(N)N
A: 8.29

----------
- Measurement Target: Proteinase A (Bacillus licheniformis, UniProt P00780)
- Sequence (P00780 106-379): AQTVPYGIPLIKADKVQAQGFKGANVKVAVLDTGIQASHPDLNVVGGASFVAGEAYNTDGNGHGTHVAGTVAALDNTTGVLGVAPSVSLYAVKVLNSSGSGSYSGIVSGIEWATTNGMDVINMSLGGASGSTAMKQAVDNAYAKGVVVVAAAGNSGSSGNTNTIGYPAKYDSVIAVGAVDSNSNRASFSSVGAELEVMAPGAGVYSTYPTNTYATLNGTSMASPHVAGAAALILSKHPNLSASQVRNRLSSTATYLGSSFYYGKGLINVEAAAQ
- Experiment Summary: biochemical
- Set-up: species or system Bacillus Iicheniformis
Measured Attribute: pIC50
pIC50 is defined as minus the log10 of a concentration measured in mol/L.

Q: For Proteinase A (Bacillus licheniformis, UniProt P00780), give the measured pIC50 of the entry CC(=O)N[C@@H](CC(C)C)C(=O)N[C@@H](CC(C)C)C(=O)N[C@H](C=O)CCCNC(=N)N
A: 4.50

----------
- Measurement Target: Caspase 5 (Homo sapiens, UniProt P51878)
- Sequence (P51878 347-434): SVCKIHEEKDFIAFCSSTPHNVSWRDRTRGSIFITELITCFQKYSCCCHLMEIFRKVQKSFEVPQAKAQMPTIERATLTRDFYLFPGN
- Sequence (P51878 138-327): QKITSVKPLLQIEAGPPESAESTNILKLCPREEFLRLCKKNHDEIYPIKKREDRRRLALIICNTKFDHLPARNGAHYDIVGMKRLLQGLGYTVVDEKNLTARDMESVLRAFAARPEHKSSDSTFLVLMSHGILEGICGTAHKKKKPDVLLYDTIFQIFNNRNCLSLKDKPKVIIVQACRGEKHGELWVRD
- Experiment Summary: biochemical
- Experimental Context: read-out: Compound IC50
Peptide text beside a SMILES is read from it.
Measured Attribute: IC50
Your answer should be a number followed by the unit of measure.

Q: Specify IC50 for CC[C@H](C)[C@H](NC(C)=O)C(=O)N[C@@H](CCC(=O)O)C(=O)N[C@H](C(=O)N[C@H](C=O)CC(=O)O)[C@@H](C)O [IETD-CHO] (Ac-IETD-aldehyde) and stop.
A: 38.3 nM

----------
- Measurement Target: Caspase 7 (Homo sapiens)
- Sequence (P55210 24-303): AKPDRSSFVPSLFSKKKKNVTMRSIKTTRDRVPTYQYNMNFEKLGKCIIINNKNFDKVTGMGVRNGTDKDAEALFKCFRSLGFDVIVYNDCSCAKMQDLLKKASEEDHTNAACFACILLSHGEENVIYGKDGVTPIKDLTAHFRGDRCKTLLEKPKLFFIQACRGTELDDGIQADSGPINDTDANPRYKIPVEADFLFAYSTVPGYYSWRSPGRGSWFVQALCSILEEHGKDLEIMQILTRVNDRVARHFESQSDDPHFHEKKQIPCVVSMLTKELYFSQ
Measured Attribute: pIC50
pIC50 is defined as minus the log10 of a concentration measured in mol/L.

Q: Specify pIC50 for CC(=O)N[C@@H](CC(=O)O)C(=O)N[C@@H](CCC(=O)O)C(=O)N[C@H](C(=O)N[C@H](C=O)CC(=O)O)C(C)C and stop.
A: 8.29

----------
- Measurement Target: UniProtKB P08311
- Sequence (P08311 21-244): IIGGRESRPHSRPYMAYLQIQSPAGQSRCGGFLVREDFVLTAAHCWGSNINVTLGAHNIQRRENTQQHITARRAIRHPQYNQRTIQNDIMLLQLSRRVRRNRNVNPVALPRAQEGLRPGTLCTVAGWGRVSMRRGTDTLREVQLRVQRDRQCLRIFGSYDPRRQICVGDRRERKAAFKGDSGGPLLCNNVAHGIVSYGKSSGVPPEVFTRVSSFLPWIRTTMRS
Measured Attribute: IC50 (µM)
Just the number please, in µM, no unit attached.

Q: Specify IC50 for CC(C)C[C@H](NC(=O)[C@@H](NC(=O)N[C@@H](Cc1ccccc1)C(=O)O)[C@@H]1CCN=C(N)N1)C(=O)N[C@H](C=O)Cc1ccccc1 and stop.
A: 0.236

----------
- Measurement Target: Cathepsin L (Homo sapiens, UniProt P07711)
- Sequence (P07711 114-333): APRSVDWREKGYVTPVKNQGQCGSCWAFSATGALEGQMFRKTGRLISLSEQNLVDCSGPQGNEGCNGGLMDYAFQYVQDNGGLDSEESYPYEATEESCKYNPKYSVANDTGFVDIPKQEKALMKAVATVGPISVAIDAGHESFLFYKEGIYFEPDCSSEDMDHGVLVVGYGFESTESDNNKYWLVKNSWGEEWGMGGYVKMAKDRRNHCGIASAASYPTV
- Assay type: biochemical
- Experimental Context: read-out: Compound IC50
Measured Attribute: pIC50
pIC50 is defined as minus the log10 of a concentration measured in mol/L.

Q: Specify pIC50 for CC(C)C[C@H](NC(=O)[C@H]1O[C@@H]1C(=O)O)C(=O)NCCCCN=C(N)N and stop.
A: 8.71

----------
Each record here notes measured log10 of Ki.
- Measurement Target: human vasopressin-2 receptor (V2R) (Homo sapiens, UniProt P30518)
- Sequence (P30518 whole entry): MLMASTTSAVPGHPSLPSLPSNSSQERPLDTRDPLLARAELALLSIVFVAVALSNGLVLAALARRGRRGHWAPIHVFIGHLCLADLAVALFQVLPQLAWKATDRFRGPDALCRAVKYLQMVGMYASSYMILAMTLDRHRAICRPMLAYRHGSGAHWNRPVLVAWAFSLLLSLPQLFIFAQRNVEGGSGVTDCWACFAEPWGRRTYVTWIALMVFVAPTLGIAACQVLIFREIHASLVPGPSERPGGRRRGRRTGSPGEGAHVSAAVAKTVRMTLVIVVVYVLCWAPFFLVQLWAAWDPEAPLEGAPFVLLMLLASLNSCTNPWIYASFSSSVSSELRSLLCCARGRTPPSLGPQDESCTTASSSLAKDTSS
- Experiment Summary: biochemical
- Type: binding
Bridge positions count the residues as written; N and C are the ends. Ends that are not written are not given here.
Transform log10 | Measure Ki | Unit nM

Q: For human vasopressin-2 receptor (V2R) (Homo sapiens, UniProt P30518), give the measured log10 of Ki of the entry RPSFCNLPVKPGPCNGFFSAFYYSQKTNKCHSFTYGGCKGNANAFSTLEKCRRTCVG (disulfide 5-55, 14-38, 30-51) [R44A]
A: 1.12

Q: For human vasopressin-2 receptor (V2R) (Homo sapiens, UniProt P30518), give the measured log10 of Ki of the entry RPSFCNLPVEPGPCNGFFSAFYYSQKTNKCHSFTYGGCKGNANRFSTLEKCRRTCVG (disulfide 5-55, 14-38, 30-51) [K10E]
A: 2.53

Q: For human vasopressin-2 receptor (V2R) (Homo sapiens, UniProt P30518), give the measured log10 of Ki of the entry RPSFCNLPVKPGPCNGFFSAFYYSQKTNKCHSFTYGGCKGAANRFSTIEKCRRTCVG (disulfide 5-55, 14-38, 30-51) [N41A]
A: 0.93

Q: For human vasopressin-2 receptor (V2R) (Homo sapiens, UniProt P30518), give the measured log10 of Ki of the entry RPSFCNLPVKPGPCNGFFSAFYYSQKTNKCHSFTYGGCKGNANEFSTLEKCRRTCVG (disulfide 5-55, 14-38, 30-51) [R44E]
A: 2.00

Q: For human vasopressin-2 receptor (V2R) (Homo sapiens, UniProt P30518), give the measured log10 of Ki of the entry RPSFCNLPVAPGPCNGFFSAFYYSQKTNKCHSFTYGGCKGNANRFSTLEKCRRTCVG (disulfide 5-55, 14-38, 30-51) [K10A]
A: 0.97

----------
- Measurement Target: Caspase 1 (Homo sapiens)
- Sequence (P29466 120-404): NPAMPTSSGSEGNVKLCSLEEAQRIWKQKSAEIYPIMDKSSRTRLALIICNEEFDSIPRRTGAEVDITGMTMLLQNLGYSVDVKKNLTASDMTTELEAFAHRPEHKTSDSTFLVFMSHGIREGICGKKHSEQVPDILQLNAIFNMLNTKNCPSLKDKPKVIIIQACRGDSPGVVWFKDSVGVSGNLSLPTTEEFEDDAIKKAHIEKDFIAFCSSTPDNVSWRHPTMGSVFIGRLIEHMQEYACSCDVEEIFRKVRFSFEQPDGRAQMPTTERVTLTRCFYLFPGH
- Experiment Summary: biochemical
- Experimental Context: read-out: Compound IC50
Peptide text beside a SMILES is read from it.
Measured Attribute: IC50 (nM)
Just the number please, in nM, no unit attached.

Q: Specify IC50 for CC[C@H](C)[C@H](NC(C)=O)C(=O)N[C@@H](CCC(=O)O)C(=O)N[C@H](C(=O)N[C@H](C=O)CC(=O)O)[C@@H](C)O [IETD-CHO] (Ac-IETD-aldehyde) and stop.
A: 89.3

----------
- Measurement Target: Cathepsin S (Homo sapiens)
- Sequence (P25774 115-331): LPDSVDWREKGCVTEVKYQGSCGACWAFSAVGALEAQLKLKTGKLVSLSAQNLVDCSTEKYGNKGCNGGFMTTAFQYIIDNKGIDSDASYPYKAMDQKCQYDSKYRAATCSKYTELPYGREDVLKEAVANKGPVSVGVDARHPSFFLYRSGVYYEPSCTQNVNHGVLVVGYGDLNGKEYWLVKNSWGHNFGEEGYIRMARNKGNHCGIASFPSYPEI
Measured Attribute: pIC50
pIC50 is defined as minus the log10 of a concentration measured in mol/L.

Q: Specify pIC50 for CC(C)C[C@H](NC(=O)[C@H]1O[C@@H]1C(=O)O)C(=O)NCCCCN=C(N)N and stop.
A: 8.27
